I'd be grateful if you could share measured growth for these entries.
# Tested on: SN12C renal
# assay_details: NCI-60 one-dose screen, 48 h (100 = growth as untreated, 0 = no growth, -100 = all killed)
# details: 10 µM unless noted
The panel holds about 83,000 compounds, 20% with a hit somewhere; the sample as a whole holds those more often.
Express your answer in %, writing the number without its unit.

Problem: Enter reported growth observed with SN12C renal for Cc1ccc2c(O)c(O)cc(NC(C)CCCN)c2n1 (configuration not stated)
Result: 32.2

Problem: Enter reported growth observed with SN12C renal for CCOC(=O)c1c(C)oc2ncnc(Nc3ccc(NC(=O)Nc4cccc(Cl)c4)cc3)c12
Result: 74

Problem: Enter reported growth observed with SN12C renal for CC(=O)Nc1ccc(C(=O)/C=C/c2ccc(N(C)C)cc2)cc1
Result: 98.2

Problem: Enter reported growth observed with SN12C renal for COc1ccc2cn3c4ccc(O)cc4[nH]c(=O)c3c2c1
Result: 51.7

Problem: Enter reported growth observed with SN12C renal for Cc1[nH]n(C(=S)Nc2nc3cc(Cl)c(F)cc3s2)c(=O)c1N=Nc1ccc(F)c(Cl)c1
Result: 100

Problem: Enter reported growth observed with SN12C renal for C/C(=C\c1ccc2ccccc2c1)[N+](=O)[O-]
Result: 89.6

Problem: Enter reported growth observed with SN12C renal for COc1ccc(Cn2cc3c(c2-c2ccc(O)cc2)CCc2cnoc2-3)cc1
Result: 40.8

Problem: Enter reported growth observed with SN12C renal for c1ccc(Nc2ccccn2)cc1
Result: 94.6

Problem: Enter reported growth observed with SN12C renal for Nc1nc2c(c3cnccc13)C(c1ccc(Cl)c(Cl)c1)Cc1cnccc1-2 (configuration not stated)
Result: 2.42

Problem: Enter reported growth observed with SN12C renal for O=C(Nc1ccccc1)Nc1ccc(Nc2ncnc3sc4c(c23)CCCC4)cc1
Result: 99.3

Problem: Enter reported growth observed with SN12C renal for C=CCNCCC#N
Result: 109

Problem: Enter reported growth observed with SN12C renal for CC(O)CN(CC(C)O)N(CC(C)O)CC(C)O (configuration not stated)
Result: 107

Problem: Enter reported growth observed with SN12C renal for COc1cc2oc(-c3ccc(NC(=O)c4ccccc4)cc3)cc(=O)c2c(OC)c1OC
Result: 83.7

Problem: Enter reported growth observed with SN12C renal for C=C(C)[C@@H]1CC[C@]2(COC(=O)c3ccccc3C(=O)O)CC[C@]3(C)[C@H](CC[C@@H]4[C@@]5(C)CCCNC(C)(C)[C@@H]5CC[C@]43C)[C@@H]12
Result: 59.3

Problem: Enter reported growth observed with SN12C renal for COc1ccc(-c2nc(SCC(C)C)nc(Nc3ccc(C)cc3)c2C#N)cc1
Result: 41.3

Problem: Enter reported growth observed with SN12C renal for O=c1c2c(c3ccccc3n1-c1ccccc1)NC(=S)NC2c1ccccc1 (configuration not stated)
Result: 90.4

Problem: Enter reported growth observed with SN12C renal for CCCNC(=O)Oc1ccc(/C(=C(/C)Cc2ccc(OC)cc2)c2ccc(OCCN3CCCCC3)cc2)cc1
Result: 84.9

Problem: Enter reported growth observed with SN12C renal for C/C(CCC(=O)O)=N/Nc1ccc([N+](=O)[O-])cc1
Result: 77.1

Problem: Enter reported growth observed with SN12C renal for Nc1nc(-c2cccc(Br)c2)cc(-c2cc3ccccc3oc2=O)n1
Result: 99.9

Problem: Enter reported growth observed with SN12C renal for O=C(CCC(=O)N(CCO)CCO)N(CCO)CCO
Result: 106

Problem: Enter reported growth observed with SN12C renal for COC(=O)c1ccc2[nH]c(O)c(C(=Nc3ccc(N(C)C(=O)CN4CCN(C)CC4)cc3)c3ccc([N+](=O)[O-])cc3)c2c1
Result: 27.4

Problem: Enter reported growth observed with SN12C renal for COc1cc(OC)cc(-c2ccc(-c3ccc(C(=N)N)cc3)s2)c1
Result: -76.9
